systemName: sim3-GFP (Arabidopsis thaliana) (UniProt P93002)
Sequence (P93002 other isoform, or with tags, fused parts or gaps): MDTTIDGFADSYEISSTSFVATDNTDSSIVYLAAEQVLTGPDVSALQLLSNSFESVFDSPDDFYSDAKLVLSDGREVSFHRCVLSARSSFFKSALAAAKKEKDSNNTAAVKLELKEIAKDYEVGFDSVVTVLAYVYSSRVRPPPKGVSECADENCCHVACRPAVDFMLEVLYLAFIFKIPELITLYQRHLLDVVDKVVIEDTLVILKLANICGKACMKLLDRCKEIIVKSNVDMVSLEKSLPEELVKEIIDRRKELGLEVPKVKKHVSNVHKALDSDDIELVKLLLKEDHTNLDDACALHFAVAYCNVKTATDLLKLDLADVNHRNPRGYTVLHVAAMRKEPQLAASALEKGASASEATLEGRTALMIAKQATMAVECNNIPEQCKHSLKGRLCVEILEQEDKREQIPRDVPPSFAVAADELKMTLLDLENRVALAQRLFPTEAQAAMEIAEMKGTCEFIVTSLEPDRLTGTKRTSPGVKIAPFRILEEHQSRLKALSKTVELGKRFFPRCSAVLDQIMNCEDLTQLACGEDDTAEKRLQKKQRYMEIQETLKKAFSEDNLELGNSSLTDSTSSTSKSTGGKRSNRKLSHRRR
method: sim3-GFP IP, LC-MS/MS
parameterMeasured: Normalized Fold Change: SA vs Mock (fold)
One number for each entry, in fold.

Parameter requested: Normalized Fold Change: SA vs Mock. Apply to each item below.
1. GRF6, G-box regulating factor 6 (protein, UniProt P48349 1-248, looked up) 14-3-3-like protein G-BOX factor 14 lambda: MAATLGRDQYVYMAKLAEQAERYEEMVQFMEQLVTGATPAEELTVEERNLLSVAYKNVIGSLRAAWRIVSSIEQKEESRKNDEHVSLVKDYRSKVESELSSVCSGILKLLDSHLIPSAGASESKVFYLKMKGDYHRYMAEFKSGDERKTAAEDTMLAYKAAQDIAAADMAPTHPIRLGLALNFSVFYYEILNSSDKACNMAKQAFEEAIAELDTLGEESYKDSTLIMQLLRDNLTLWTSDMQEQMDEA
2. AtHSBP, HSBP, heat shock factor binding protein (protein, UniProt Q8GW48 1-86, looked up) Heat shock factor-binding protein: MDGHDSEDTKQSTADMTAFVQNLLQQMQTRFQTMSDSIITKIDDMGGRINELEQSINDLRAEMGVEGTPPPASKSGDEPKTPASSS
3. NTF2B, nuclear transport factor 2B (protein, UniProt Q9C7F5 2-126, looked up) Nuclear transport factor 2B: SQMDPDAVSKAFVEHYYSTFDTNRVGLAGLYQEASMLTFEGQKIQGVQSIVAKLTSLPFQQCKHHISTVDCQPSGPASGMLVFVSGNLQLAGEEHALKFSQMFHLMPTPQGSFYVFNDIFRLNYA

[A]
1. 2.01
2. 6.22
3. 11.2
